The origin of these recorded values is patent US20250206834A1.

Target: T1, human CEACAM5 on cells (human, UniProt P06731 35-685)
T1 chain: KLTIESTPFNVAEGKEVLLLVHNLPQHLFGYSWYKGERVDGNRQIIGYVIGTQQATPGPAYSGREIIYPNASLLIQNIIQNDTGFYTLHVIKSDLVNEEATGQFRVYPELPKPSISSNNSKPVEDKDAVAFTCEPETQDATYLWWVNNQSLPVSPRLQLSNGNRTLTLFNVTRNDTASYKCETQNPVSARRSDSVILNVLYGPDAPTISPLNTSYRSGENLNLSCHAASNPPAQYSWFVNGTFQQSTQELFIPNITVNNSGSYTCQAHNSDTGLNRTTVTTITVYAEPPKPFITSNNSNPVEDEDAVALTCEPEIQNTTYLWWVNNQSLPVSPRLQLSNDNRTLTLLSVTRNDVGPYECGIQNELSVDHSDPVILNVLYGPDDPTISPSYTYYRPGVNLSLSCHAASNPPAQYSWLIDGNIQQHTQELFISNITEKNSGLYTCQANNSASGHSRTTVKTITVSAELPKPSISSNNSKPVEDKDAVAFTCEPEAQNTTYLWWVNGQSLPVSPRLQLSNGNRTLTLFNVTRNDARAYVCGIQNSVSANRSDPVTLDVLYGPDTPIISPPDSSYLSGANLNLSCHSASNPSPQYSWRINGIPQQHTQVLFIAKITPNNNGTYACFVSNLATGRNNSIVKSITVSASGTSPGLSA
Experiment: FACS cell binding; MKN-45 cells
Measurement Kind: EC50 (nM)
# value in nM; strip the unit string

Known EC50 results, listed for orientation:
# Binder, Value Measured
measured = [
    ("IMMU130-263-1-3 (bispecific antibody) heavy (part 1 of 2): EVQLVESGGGVVQPGRSLRLSCSASGFDFTTYWMSWVRQAPGKGLEWIGEIHPDSSTINYAPSLKDRFTISRDNAKNTLFLQMDSLRPEDTGVYFCASLYFGFPWFAYWGQGTPVTVSS heavy (part 2 of 2): GGGGSGGGGSGGGGSGGGGSEVQLLESGGGLVQPGGSLRLSCAASGFTFSSSAMSWARQTPGKGFEWVSGIYSGGSTYYTESVKDRFTISRDNSKNTVYLQMNSLKPEDTAVYYCATWGTLRFGVWAEYDHWGQGTQVTVSS light: DIQLTQSPSSLSASVGDRVTITCKASQDVGTSVAWYQQKPGKAPKLLIYWTSTRHTGVPSRFSGSGSGTDFTFTISSLQPEDIATYYCQQYSLYRSFGQGTKVEIK", 8.47),
    ("IMMU130-263-1-3_1 (bispecific antibody, V domains shown) VH: EVQLVESGGGVVQPGRSLRLSCSASGFDFTTYWMSWVRQAPGKGLEWIGEIHPDSSTINYAPSLKDRFTISRDNAKNTLFLQMDSLRPEDTGVYFCASLYFGFPWFAYWGQGTPVTVSS VL: DIQLTQSPSSLSASVGDRVTITCKASQDVGTSVAWYQQKPGKAPKLLIYWTSTRHTGVPSRFSGSGSGTDFTFTISSLQPEDIATYYCQQYSLYRSFGQGTKVEIK VHH: EVQLVESGGGLVQPGGSLRLSCAASGFTFSSSAMSWARQAPGKGFEWVSGIYSGGSTYYTESVKDRFTISRDNSKNTVYLQMNSLKPEDTAVYYCATWGTLRFGVWAEYDHWGQGTQVTVSS", 7.34),
    ("Labetuzumab (antibody, V domains shown) VH: EVQLVESGGGVVQPGRSLRLSCSASGFDFTTYWMSWVRQAPGKGLEWIGEIHPDSSTINYAPSLKDRFTISRDNAKNTLFLQMDSLRPEDTGVYFCASLYFGFPWFAYWGQGTPVTVSS VL: DIQLTQSPSSLSASVGDRVTITCKASQDVGTSVAWYQQKPGKAPKLLIYWTSTRHTGVPSRFSGSGSGTDFTFTISSLQPEDIATYYCQQYSLYRSFGQGTKVEIK", 5.31),
]

Form field: reported EC50 of optimized bispecific antibody with 263 huNb-1-3_2 (bispecific antibody) heavy (part 1 of 2): EVQLVESGGGVVQPGRSLRLSCSASGFDFTTYWMSWVRQAPGKGLEWIGEIHPDSSTINYAPSLKDRFTISRDNAKNTLFLQMDSLRPEDTGVYFCASLYFGFPWFAYWGQGTPVTVSS heavy (part 2 of 2): GGGGSGGGGSGGGGSGGGGSEVQLVESGGGLVQPGGSLRLSCAASGFTFSSSAMSWARQAPGKGFEWVSGIYSGGSTYYTESVKDRFTISRDNAKNTVYLQMNSLKPEDTAVYYCATWGTLRFGVWAEYDHWGQGTLVTVSS light: DIQLTQSPSSLSASVGDRVTITCKASQDVGTSVAWYQQKPGKAPKLLIYWTSTRHTGVPSRFSGSGSGTDFTFTISSLQPEDIATYYCQQYSLYRSFGQGTKVEIK
7.75
